Experiment: Pharmacokinetic evaluation in male CD-1 mice (IV 0.5 mg/kg, PO 2 mg/kg), plasma LC/MS/MS
Format: in vivo
Settings: IV (0.5 mg/kg), read-out: C0 (initial plasma concentration)
Procedure: Assay purpose: The pharmacokinetic properties of the compounds of the present disclosure were studied in mice. Each assay compound was mixed with DMAC respectively, and vortexed for 2 minutes. […] Four male CD-1 mice were divided into two groups. […] The concentration of the assay compound in plasma was determined by LC/MS/MS method, and the pharmacokinetic parameters were calculated by Phoenix WinNonlin software. […]
endpoint_name: C0
Provide a numeric answer, followed by its unit.

Prompt: Look up and state reported C0 for O=C(O)c1scc2[nH]c(=O)n(-c3cc4c(cc3F)OCCCOc3ccc(F)c(F)c3CO4)c(=O)c12 [Compound of formula (I)]
Completion: 13.5 µM

* * *

Assay: Pharmacokinetic evaluation in male CD-1 mice (IV 0.5 mg/kg, PO 2 mg/kg), plasma LC/MS/MS
Type: in vivo
Conditions: PO (2 mg/kg)
Description: Assay purpose: The pharmacokinetic properties of the compounds of the present disclosure were studied in mice. Each assay compound was mixed with DMAC respectively, and vortexed for 2 minutes. […] Four male CD-1 mice were divided into two groups. […] The concentration of the assay compound in plasma was determined by LC/MS/MS method, and the pharmacokinetic parameters were calculated by Phoenix WinNonlin software. […]
endpoint_name: Cmax (µM)
Give the value, in units of µM, as a plain number.

Prompt: Look up and state reported Cmax for O=C(O)c1scc2[nH]c(=O)n(-c3cc4c(cc3F)OCCCOc3ccc(F)c(F)c3CO4)c(=O)c12 [Compound of formula (I)]
Completion: 25.8
